# Test system: MCF7
# RUN DESCRIPTION: NCI tumour cell line growth inhibition, 48 h
Active and inactive are the calls of the source. Rule as the data show it: active = GI50 up to about 1.1 µM and inactive = higher.
Please reply with one of these outcomes: active, inactive

Answered cases to consult:
{"COMPOUND": "CCC12CCCN(Cc3ccccc3)C1c1c([nH]c3ccccc13)C(C(=O)OC)C2 (configuration not stated)", "TARGET ENTITY": "MCF7", "LABEL CLASS": "inactive"}
{"COMPOUND": "N#CC(N)c1ccc(OCCCCCCCCCCOc2ccc(C(N)C#N)cc2)cc1 (configuration not stated)", "TARGET ENTITY": "MCF7", "LABEL CLASS": "inactive"}
{"COMPOUND": "Cc1nnc(N)nc1C/C=C/C(Sc1ccc(Cl)cc1)c1ccccc1 (configuration not stated)", "TARGET ENTITY": "MCF7", "LABEL CLASS": "inactive"}

What did this assay record as the result for `COc1c2ccsc2c(OC)c2ccsc12` ? inactive

What did this assay record as the result for `Nc1nc(O)c2ncn([C@H]3CC[C@@H](CO)O3)c2n1` ? inactive

What did this assay record as the result for `CC(C)CNC(=O)CCc1cccc2c1oc1c(CCN)cccc12` ? inactive

What did this assay record as the result for CC(=O)OC12C3C4C1C1C2C3C41OC(C)=O (configuration not stated) ? inactive

What did this assay record as the result for `COc1ccc(CN2C[C@H]3[C@@H](CC(=O)O[C@H]3C)CC2=O)cc1` ? inactive

---

# System: LOX IMVI
# RUN DESCRIPTION: NCI tumour cell line growth inhibition, 48 h
The source made the active and inactive calls. No stated cut-off is given here; in the data, active = GI50 up to about 1.1 µM and inactive = higher.
Measured GI50 by item

Check out these entries, answers already filled in.
{"COMPOUND": "COc1ccccc1Nc1nc(NNC(=O)Cc2ccccc2)nc(NNC(=O)c2ccncc2)n1", "GI50": "> 10 µM (inactive)"}
{"COMPOUND": "CCCn1c(=O)c2ccccc2[n+]2c(-c3ccc([N+](=O)[O-])cc3)csc12", "GI50": "22.1 µM (inactive)"}
{"COMPOUND": "COC(=O)CCC(NC(=S)N/N=C/c1ccco1)C(=O)OC (stereo not given)", "GI50": "> 100 µM (inactive)"}
{"COMPOUND": "CN(C(=O)C1CCCCCC1=O)c1ccccc1Cl (stereo not given)", "GI50": "> 100 µM (inactive)"}
{"COMPOUND": "N#Cc1ccc(C(=O)/C=C/c2ccc(O)c(O)c2)cc1", "GI50": "11.5 µM (inactive)"}

With LOX IMVI as the test system, CC(=O)NC1C(OCc2ccccc2)OC(CO)C(O)C1OCC(=O)N[C@@H](C)C(=O)N[C@H](CCC(=O)NCCNCCNc1c2ccccc2nc2cccc([N+](=O)[O-])c12)C(N)=O (stereo not given in full) showed GI50 of 23.5 µM (inactive)

With LOX IMVI as the test system, `COc1ccc2c(c1)[n+]([O-])c(C(=O)CC(=O)C(=O)Nc1cccc(Cl)c1C)c(C)[n+]2[O-]` showed GI50 of > 100 µM (inactive)

With LOX IMVI as the test system, `CN1CCN(Cc2ccc(C(=S)Nc3ccccc3)s2)CC1` showed GI50 of 15.7 µM (inactive)

With LOX IMVI as the test system, `CC(C)(O)/C1=C/C=C/CCCCCCCCCC1` showed GI50 of > 100 µM (inactive)

With LOX IMVI as the test system, CC(=O)C(C(=N)C#N)C(=O)Nc1ccccc1 (stereo not given) showed GI50 of > 100 µM (inactive)
